We begin with a simple list: items and their reported IC50.
- study.system: Aurora kinase A (Homo sapiens)
- Sequence (O14965 whole entry): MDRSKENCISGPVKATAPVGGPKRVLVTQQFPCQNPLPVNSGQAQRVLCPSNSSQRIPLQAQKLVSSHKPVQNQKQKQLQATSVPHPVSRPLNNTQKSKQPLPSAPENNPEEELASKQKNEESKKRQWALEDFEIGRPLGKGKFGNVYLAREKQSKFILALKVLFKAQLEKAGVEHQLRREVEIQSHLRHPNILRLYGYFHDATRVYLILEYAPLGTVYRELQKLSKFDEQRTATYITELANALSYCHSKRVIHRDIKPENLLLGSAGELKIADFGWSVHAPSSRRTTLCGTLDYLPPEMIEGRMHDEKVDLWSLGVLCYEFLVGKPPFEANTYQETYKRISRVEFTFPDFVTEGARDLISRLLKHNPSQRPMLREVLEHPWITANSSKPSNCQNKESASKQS
- experiment.description: Inhibition of recombinant Aurora A expressed in Escherichia coli

O=C1NC(=O)C(n2ccc3ncccc32)=C1c1cn(CCCn2ccnc2)c2ccc(Br)cc12    > 40 µM
O=C1NC(=O)C(n2ccc3ncccc32)=C1c1cn(CCn2ccnc2)c2ccccc12    > 40 µM

Turning now to a further compound:
What measured IC50 goes with `Cn1cc(C2=C(c3cn(CCCN4CCOCC4)c4ccccc34)C(=O)NC2=O)c2ncccc21` ?
> 40 µM

---

- study.system: UniProt:P49841
- Sequence (P49841 whole entry): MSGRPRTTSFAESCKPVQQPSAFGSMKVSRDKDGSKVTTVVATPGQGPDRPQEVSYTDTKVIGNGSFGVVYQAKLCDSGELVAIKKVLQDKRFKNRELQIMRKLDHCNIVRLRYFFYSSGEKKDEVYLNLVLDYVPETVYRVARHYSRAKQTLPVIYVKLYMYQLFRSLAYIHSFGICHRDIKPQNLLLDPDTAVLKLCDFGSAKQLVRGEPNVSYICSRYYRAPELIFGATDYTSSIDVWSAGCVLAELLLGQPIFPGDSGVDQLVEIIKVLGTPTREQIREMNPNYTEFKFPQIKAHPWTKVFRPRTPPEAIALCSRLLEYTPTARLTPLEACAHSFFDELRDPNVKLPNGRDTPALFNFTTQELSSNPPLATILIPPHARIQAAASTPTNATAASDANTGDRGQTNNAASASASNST
- experiment.description: Inhibition of recombinant GST-GSK3beta expressed in Escherichia coli BL21 (DE3)
readout.kind: IC50 (µM)

Some compounds with recorded IC50:
CN(C)CCCn1cc(C2=C(n3ccc4ncccc43)C(=O)NC2=O)c2ccc(Br)cc21    2.26
O=C1NC(=O)C(n2ccc3ncccc32)=C1c1cn(CCCn2ccnc2)c2ccc(Br)cc12    0.14
CN(C)CCCn1cc(C2=C(n3ccc4ncccc43)C(=O)NC2=O)c2ccccc21    13.6
Cn1cc(C2=C(c3cn(CCCn4ccnc4)c4ccccc34)C(=O)NC2=O)c2ncccc21    0.66
CN(C)CCCn1cc(C2=C(n3ccc4ncccc43)C(=O)NC2=O)c2ccc(F)cc21    12.4
COc1ccc2c(c1)c(C1=C(n3ccc4ncccc43)C(=O)NC1=O)cn2CCCn1ccnc1    0.48
O=C1NC(=O)C(n2ccc3ncccc32)=C1c1cn(CCn2ccnc2)c2ccccc12    0.26
O=C1NC(=O)C(n2ccc3ncccc32)=C1c1cn(CCCN2CCCCC2)c2ccccc12    12.4

(a) O=C1NC(=O)C(n2ccc3ncccc32)=C1c1cn(CCCCn2ccnc2)c2ccccc12
(b) O=C1NC(=O)C(n2ccc3ncccc32)=C1c1c[nH]c2ccccc12
(c) O=C1NC(=O)C(n2ccc3ncccc32)=C1c1cn(CCCN2CCOCC2)c2ccccc12
(d) O=C1NC(=O)C(n2ccc3ncccc32)=C1c1cn(CCCn2ccnc2)c2cc(F)ccc12
(e) O=C1NC(=O)C(n2ccc3ncccc32)=C1c1cn(CCCn2ccnc2)c2ccccc12
List the 5 entries from lowest IC50 to highest IC50 value. Please respond by ranking the labels in the order requested.
d, e, a, c, b
(d: 0.31 µM, e: 0.55 µM, a: 0.85 µM, c: 1.79 µM, b: 30.6 µM)

(A) O=C1NC(=O)C(n2ccc3ncccc32)=C1c1cn(CCCn2ccnc2)c2cc(Br)ccc12
(B) COc1ccc2c(c1)c(C1=C(n3ccc4ncccc43)C(=O)NC1=O)cn2CCCN(C)C
Sorting by IC50 in descending order, would A or B appear first? I would appreciate it if you answered with the label of your choice.
B
(B: 22.5 µM, A: 0.95 µM)

(1) Cn1cc(C2=C(c3cn(CCCO)c4ccccc34)C(=O)NC2=O)c2ncccc21
(2) Cn1cc(C2=C(c3cn(CCCN4CCOCC4)c4ccccc34)C(=O)NC2=O)c2ncccc21
Given 1 and given 2 , which shows the smaller recorded IC50? Please indicate the selected item by its label.
2
(2: 0.76 µM, 1: 1.14 µM)
